- System: KRAS-mutant PDC complex spheroid viability
- MEASUREMENT NOTES: Anticancer human tumor 186277-243-T-J2-PDC patient-derived colon adenocarcinoma cell line growth inhibition [KRAS2]
- MEASUREMENT SETUP: second compound 0.316 µM; first compound 0.0316 µM; stronger effect = lower value
ASSAY ENDPOINT: viability, T/C

Take a look at these entries with their results.
{"COMPOUND": "CC1OCC2(CCN(c3cnc(Sc4ccnc(N)c4Cl)c(N)n3)CC2)C1N (centres undefined) + CNCc1ccccc1-c1csc(C(C)Nc2nc(C)nc3cc(OC)c(OC)cc23)c1", "ASSAY ENDPOINT": "viability, T/C", "ENDPOINT RESULT": "103%"}
{"COMPOUND": "CC(=O)OC12COC1CC(O)C1(C)C(=O)C(O)C3=C(C)C(OC(=O)C(O)C(NC(=O)OC(C)(C)C)c4ccccc4)CC(O)(C(OC(=O)c4ccccc4)C21)C3(C)C (centres undefined) + CC1OCC2(CCN(c3cnc(Sc4ccnc(N)c4Cl)c(N)n3)CC2)C1N", "ASSAY ENDPOINT": "viability, T/C", "ENDPOINT RESULT": "3.64%"}
{"COMPOUND": "CCN1CCN(Cc2ccc(Nc3ncc(F)c(-c4cc(F)c5nc(C)n(C(C)C)c5c4)n3)nc2)CC1 + CC1OCC2(CCN(c3cnc(Sc4ccnc(N)c4Cl)c(N)n3)CC2)C1N", "ASSAY ENDPOINT": "viability, T/C", "ENDPOINT RESULT": "138%"}

Entry CCNC(=O)CC1N=C(c2ccc(Cl)cc2)c2cc(OC)ccc2-n2c(C)nnc21 (centres undefined) + COc1cc2nc(C)nc(NC(C)c3cc(N)cc(C(F)(F)F)c3)c2cc1OC1CCOC1 — recorded viability, T/C = 102%

----------
- Test system: KRAS-mutant PDC complex spheroid viability
- MEASUREMENT NOTES: Anticancer human tumor 186277-243-T-J2-PDC cell line growth inhibition [KRAS2]
- MEASUREMENT SETUP: curve of first compound; second compound 3.16 µM
ASSAY ENDPOINT: IC50

Known IC50 results, listed for orientation:
{"COMPOUND": "Cn1ncnc1[C@H]1c2n[nH]c(=O)c3cc(F)cc(c23)N[C@@H]1c1ccc(F)cc1 + CNCc1ccccc1-c1csc(C(C)Nc2nc(C)nc3cc(OC)c(OC)cc23)c1", "ASSAYED TARGET": "KRAS-mutant PDC complex spheroid viability", "IC50": "< 0.000316 µM"}
{"COMPOUND": "O=C(c1cc(Cc2n[nH]c(=O)c3ccccc23)ccc1F)N1CCN(C(=O)C2CC2)CC1 + C=CC(=O)N1CCN(c2nc(OCC3CCCN3C)nc3c2CCN(c2cccc4cccc(C)c24)C3)CC1CC#N", "ASSAYED TARGET": "KRAS-mutant PDC complex spheroid viability", "IC50": "< 0.0316 µM"}
{"COMPOUND": "CC1COCCN1c1cc(-c2ccnn2C)c2ccnc(-c3ccn[nH]3)c2n1 (configuration not stated) + CNCc1ccccc1-c1csc(C(C)Nc2nc(C)nc3cc(OC)c(OC)cc23)c1", "ASSAYED TARGET": "KRAS-mutant PDC complex spheroid viability", "IC50": "< 0.01 µM"}

# IC50 (compound: CCN1CCN(Cc2ccc(Nc3ncc(F)c(-c4cc(F)c5nc(C)n(C(C)C)c5c4)n3)nc2)CC1 + C=CC(=O)N1CCN(c2nc(=O)n(-c3c(C)ccnc3C(C)C)c3nc(-c4c(O)cccc4F)c(F)cc23)C(C)C1 ) is > 1 µM

Noted for COC(=O)c1ccc2c(C(=Nc3ccc(N(C)C(=O)CN4CCN(C)CC4)cc3)c3ccccc3)c(O)[nH]c2c1 + CNCc1ccccc1-c1csc(C(C)Nc2nc(C)nc3cc(OC)c(OC)cc23)c1 : its IC50 reads < 0.0316 µM

Form field IC50, entry CC(C)NCC(C(=O)N1CCN(c2ncnc3c2C(C)CC3O)CC1)c1ccc(Cl)cc1 (configuration not stated) + C=CC(=O)N1CCN(c2nc(OCC3CCCN3C)nc3c2CCN(c2cccc4cccc(C)c24)C3)CC1CC#N : < 0.0316 µM

Value of measured IC50 for the entry CC(=O)OC12COC1CC(O)C1(C)C(=O)C(O)C3=C(C)C(OC(=O)C(O)C(NC(=O)OC(C)(C)C)c4ccccc4)CC(O)(C(OC(=O)c4ccccc4)C21)C3(C)C (configuration not stated) + CNCc1ccccc1-c1csc(C(C)Nc2nc(C)nc3cc(OC)c(OC)cc23)c1 : < 0.01 µM

Entry CC(=O)OC12COC1CC(O)C1(C)C(=O)C(O)C3=C(C)C(OC(=O)C(O)C(NC(=O)OC(C)(C)C)c4ccccc4)CC(O)(C(OC(=O)c4ccccc4)C21)C3(C)C (configuration not stated) + CC1OCC2(CCN(c3cnc(Sc4ccnc(N)c4Cl)c(N)n3)CC2)C1N , IC50 reported as < 0.01 µM

Noted for COc1cc2nccc(Oc3ccc(NC(=O)C4(C(=O)Nc5ccc(F)cc5)CC4)cc3)c2cc1OC + C=CC(=O)N1CCN(c2nc(=O)n(-c3c(C)ccnc3C(C)C)c3nc(-c4c(O)cccc4F)c(F)cc23)C(C)C1 : its IC50 reads 0.823 µM

IC50 for Cn1nccc1Nc1nccc(-c2cc3c(s2)C(C)(C)N(CCN2CCOCC2)C3=O)n1 + CC1OCC2(CCN(c3cnc(Sc4ccnc(N)c4Cl)c(N)n3)CC2)C1N is 0.176 µM

For this compound ( COc1cc(Nc2ncc3c(n2)-c2ccc(Cl)cc2C(c2c(F)cccc2OC)=NC3)ccc1C(=O)O + C=CC(=O)N1CCN(c2nc(OCC3CCCN3C)nc3c2CCN(c2cccc4cccc(C)c24)C3)CC1CC#N ), measured IC50 is < 0.0316 µM

// CC1COCCN1c1cc(-c2ccnn2C)c2ccnc(-c3ccn[nH]3)c2n1 (configuration not stated) + C=CC(=O)N1CCN(c2nc(=O)n(-c3c(C)ccnc3C(C)C)c3nc(-c4c(O)cccc4F)c(F)cc23)C(C)C1 : IC50 value = 0.017 µM

Documented IC50 of CC(=O)Nc1cccc(-n2c(=O)n(C3CC3)c(=O)c3c(Nc4ccc(I)cc4F)n(C)c(=O)c(C)c32)c1 + CC1OCC2(CCN(c3cnc(Sc4ccnc(N)c4Cl)c(N)n3)CC2)C1N : < 0.0001 µM

Entry Cn1nccc1Nc1nccc(-c2cc3c(s2)C(C)(C)N(CCN2CCOCC2)C3=O)n1 + C=CC(=O)N1CCN(c2nc(OCC3CCCN3C)nc3c2CCN(c2cccc4cccc(C)c24)C3)CC1CC#N ; IC50 = < 0.0316 µM

Short answer for Cn1nccc1Nc1nccc(-c2cc3c(s2)C(C)(C)N(CCN2CCOCC2)C3=O)n1 + COc1cc2nc(C)nc(NC(C)c3cc(N)cc(C(F)(F)F)c3)c2cc1OC1CCOC1 : IC50 was 0.193 µM

Data point: CN(C)C/C=C/C(=O)Nc1cc2c(Nc3ccc(F)c(Cl)c3)ncnc2cc1O[C@H]1CCOC1 + C=CC(=O)N1CCN(c2nc(OCC3CCCN3C)nc3c2CCN(c2cccc4cccc(C)c24)C3)CC1CC#N ; IC50 = < 0.000316 µM

Looking up CCN1CCN(Cc2ccc(Nc3ncc(F)c(-c4cc(F)c5nc(C)n(C(C)C)c5c4)n3)nc2)CC1 + COc1cc2nc(C)nc(NC(C)c3cc(N)cc(C(F)(F)F)c3)c2cc1OC1CCOC1 , I found its IC50 recorded as 0.714 µM
